What pKi was measured for each of the following?
biological target: HIV-1 protease (Human immunodeficiency virus, UniProt O90785)
Sequence (O90785 whole entry): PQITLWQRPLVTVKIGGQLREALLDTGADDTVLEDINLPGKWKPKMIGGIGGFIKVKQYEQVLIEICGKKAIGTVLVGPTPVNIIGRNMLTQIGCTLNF
Numbers only, as −log10 of the molar value.

Worked examples follow.
{"columns": ["molecule", "reported measurement"],
 "data": [
  ["O=C(NC1c2ccccc2CC1O)[C@H](Cc1ccccc1)CC(O)C[C@@H](Cc1ccccc1)C(=O)NC1c2ccccc2CC1O (stereo partly drawn) [Carbinol, 18b]", 8.42],
  ["O=C(NCc1ccccc1)[C@H](Cc1ccccc1)CC(O)C[C@@H](Cc1ccccc1)C(=O)NCc1ccccc1 [Carbinol, 18a]", 5.49]
]}

# input for lookup
Item: O=C(NCc1ccccc1)[C@H](Cc1ccccc1)C[Si](O)(O)C[C@@H](Cc1ccccc1)C(=O)NCc1ccccc1 [Silanediol, 17a] | pKi: 5.49
